- System: Pancreatin
- assay.procedure: Protease stability in simulated intestinal fluid (Pancreatin-SIF, FaSSIF)
- Type: in vitro ADME
- experimental.conditions: 60 min, 1 μM peptide, 37° C., read-out: FaSSIF 60 (min), remaining percent of peptide
Starred links: 1 amine or outer side, 2 acyl side, 3 side chain; linkers in the order of their positions; H or OH if unused. Positions of bridges follow the written chain, without caps; N, C: chain ends. Non-standard residues stand in square brackets, D forms with d. Residues, ends and D or L forms follow the SMILES beside them. *: point of attachment. X5 = CN(C(=O)CCC(=O)[*:3])[C@@H](CS[*:2])C(=O)[*:1]; Trp(7-Me) = Cc1cccc2c(C[C@H](N)C(=O)O)c[nH]c12; X1 = O=C(CCCCN[*:3])N[C@@H](CS[*:2])C(=O)[*:1]; 2Nal = N[C@@H](Cc1ccc2ccccc2c1)C(=O)O; 3Pal = N[C@@H](Cc1cccnc1)C(=O)O; Lys(Me) = CNCCCC[C@H](N)C(=O)O; αMeL = CC(C)C[C@](C)(N)C(=O)O; Me2NCH2CH2 = CN(C)CC*; Sar = CNCC(=O)O
For each of the molecules below, state its remaining at 1 h, 1 µM.
Include the unit after the number when you answer.

# molecule CC(=O)N[C@H]1CCCCNC(=O)[C@@H]2CSSC[C@H](NC(=O)[C@H](CC(C)C)NC(=O)[C@H](Cc3c[nH]c4c(C)cccc34)NC1=O)C(=O)N[C@@H](Cc1ccc(OCCN(C)C)cc1)C(=O)N[C@@H](Cc1ccc3ccccc3c1)C(=O)N[C@@](C)(CC(C)C)C(=O)N[C@H](C(=O)N[C@@H](C)C(=O)N[C@@H](Cc1cccnc1)C(=O)N(C)CC(N)=O)CCCCN(C)C(=O)CCC(=O)N2C [compound 70] (Ac-K[Trp(7-Me)]LCY(Me2NCH2CH2)[2Nal][αMeL][Lys(Me)]A[3Pal][Sar]-NH2; linker 1-4-8 via X5) ; its remaining at 1 h, 1 µM = 94%

# molecule CC(=O)N[C@H]1CCCCNC(=O)[C@@H]2CSSC[C@H](NC(=O)[C@H](CCC(N)=O)NC(=O)[C@H](Cc3c[nH]c4ccccc34)NC1=O)C(=O)N[C@@H](Cc1ccc(OCCN(C)C)cc1)C(=O)N[C@@H](Cc1ccc3ccccc3c1)C(=O)N[C@@](C)(CC(C)C)C(=O)N[C@H](C(=O)N[C@@H](CC(N)=O)C(=O)N[C@@H](CC(N)=O)C(N)=O)CCC(=O)NCCCCC(=O)N2 [compound 28] (Ac-KWQCY(Me2NCH2CH2)[2Nal][αMeL]ENN-NH2; linker 1-4-8 via X1) ; its remaining at 1 h, 1 µM = 80%

* * *

- assay.procedure: Chemical stability assessment of peptides (relative purity loss)
- Format: physicochemical
- experimental.conditions: 50 mM phosphate buffer pH 6.5 + acetonitrile (1:1); 24 hours at 37° C.
Starred links: 1 amine or outer side, 2 acyl side, 3 side chain; linkers in the order of their positions; H or OH if unused. Positions of bridges follow the written chain, without caps; N, C: chain ends. Non-standard residues stand in square brackets, D forms with d. Residues, ends and D or L forms follow the SMILES beside them. *: point of attachment. X3 = CN(CCCCC(=O)N[C@@H](CS[*:2])C(=O)[*:1])[*:3]; X1 = O=C(CCCCN[*:3])N[C@@H](CS[*:2])C(=O)[*:1]; αMeLys(Me2) = CN(C)CCCC[C@](C)(N)C(=O)O; X2 = CN(C)[C@@H](CCCCN[*:1])C(=O)[*:2]; 2Nal = N[C@@H](Cc1ccc2ccccc2c1)C(=O)O; AEF = NCCOc1ccc(C[C@H](N)C(=O)O)cc1; 3Pal = N[C@@H](Cc1cccnc1)C(=O)O; αMeL = CC(C)C[C@](C)(N)C(=O)O; Thp = NC1(C(=O)O)CCOCC1; Me2NCH2CH2 = CN(C)CC*; Aib = CC(C)(N)C(=O)O; Ahx = NCCCCCC(=O)O; Ava = NCCCCC(=O)O; Sar = CNCC(=O)O
measurement.type: Chemical stability (relative purity loss) Buffer pH 6.5

# compound CC(=O)NCCCC[C@@H]1NC(=O)[C@H](Cc2c[nH]c3c(C)cccc23)NC(=O)[C@@H](NC(C)=O)CCCCNC(=O)[C@@H]2CSSC[C@H](NC1=O)C(=O)N[C@@H](Cc1ccc(OCCN(C)C)cc1)C(=O)N[C@@H](Cc1ccc3ccccc3c1)C(=O)NC1(CCOCC1)C(=O)N[C@H](C(=O)N[C@@H](CC(N)=O)C(=O)N[C@@H](Cc1cccnc1)C(=O)N(C)CC(N)=O)CCCCN(C)CCCCN2C ; its Chemical stability (relative purity loss) Buffer pH 6.5 = 9.0%

# compound CC(=O)N[C@H]1CCCCNC(=O)[C@@H]2CSSC[C@H](NC(=O)[C@H](CCC(N)=O)NC(=O)[C@H](Cc3c[nH]c4ccccc34)NC1=O)C(=O)N[C@@H](Cc1ccc(OCCN)cc1)C(=O)N[C@@H](Cc1ccc3ccccc3c1)C(=O)NC(C)(C)C(=O)N[C@H](C(=O)N[C@@H](CC(N)=O)C(=O)NCC(N)=O)CCC(=O)N(C)CCCCC(=O)N2 [compound 15] (Ac-KWQC[AEF][2Nal][Aib]ENG-NH2; linker 1-4-8 via X3) ; its Chemical stability (relative purity loss) Buffer pH 6.5 = 2.9%

# compound CC(=O)N[C@H]1CCCCNC(=O)[C@@H]2CSSC[C@H](NC(=O)[C@H](CCC(N)=O)NC(=O)[C@H](Cc3c[nH]c4ccccc34)NC1=O)C(=O)N[C@@H](Cc1ccc(OCCN(C)C)cc1)C(=O)N[C@@H](Cc1ccc3ccccc3c1)C(=O)NC(C)(C)C(=O)N[C@H](C(=O)N[C@@H](C)C(=O)NCC(N)=O)CCC(=O)NCCCCC(=O)N2 [compound 32] (Ac-KWQCY(Me2NCH2CH2)[2Nal][Aib]EAG-NH2; linker 1-4-8 via X1) ; its Chemical stability (relative purity loss) Buffer pH 6.5 = 0.0%

# compound COc1ccc(C[C@@H]2NC(=O)[C@@H]3CSSC[C@H](NC(=O)CCCCCNC(=O)CC[C@@H](C(=O)N[C@@H](CC(N)=O)C(=O)N[C@@H](CC(N)=O)C(N)=O)NC(=O)C(C)(C)NC(=O)[C@H](Cc4ccc5ccccc5c4)NC2=O)C(=O)N[C@@H](CC(N)=O)C(=O)N[C@@H]([C@@H](C)O)C(=O)N[C@@H](Cc2c[nH]c4ccccc24)C(=O)N[C@@H](CCC(N)=O)C(=O)N3)cc1 [compound 2] ([Ahx]CNTWQCY(Me)[2Nal][Aib]ENN-NH2; disulfide 2-7; lactam N-11) ; its Chemical stability (relative purity loss) Buffer pH 6.5 = 0.1%

# compound CC(=O)NCCCC[C@@H]1NC(=O)[C@H](Cc2c[nH]c3ccccc23)NC(=O)[C@@H](N(C)C)CCCCNC(=O)[C@@H]2CSSC[C@H](NC1=O)C(=O)N[C@@H](Cc1ccc(OCCN(C)C)cc1)C(=O)N[C@@H](Cc1ccc3ccccc3c1)C(=O)N[C@@](C)(CCCCN(C)C)C(=O)N[C@H](C(=O)N[C@@H](CC(N)=O)C(=O)N[C@@H](Cc1cccnc1)C(=O)N(C)CC(N)=O)CCC(=O)NCCCCC(=O)N2 [compound 36] ([Ava]C[X2]WK(Ac)CY(Me2NCH2CH2)[2Nal][αMeLys(Me2)]EN[3Pal][Sar]-NH2; disulfide 2-6; lactam N-10) ; its Chemical stability (relative purity loss) Buffer pH 6.5 = 1.1%

# compound CC(=O)N[C@H]1CCCCNC(=O)[C@@H]2CSSC[C@H](NC(=O)[C@H](CCC(N)=O)NC(=O)[C@H](Cc3c[nH]c4ccccc34)NC1=O)C(=O)N[C@@H](Cc1ccc(OCCN(C)C)cc1)C(=O)N[C@@H](Cc1ccc3ccccc3c1)C(=O)NC1(CCOCC1)C(=O)N[C@H](C(=O)N[C@@H](CC(N)=O)C(=O)NCC(N)=O)CCC(=O)NCCCCC(=O)N2 [compound 30] (Ac-KWQCY(Me2NCH2CH2)[2Nal][Thp]ENG-NH2; linker 1-4-8 via X1) ; its Chemical stability (relative purity loss) Buffer pH 6.5 = 2.1%

# compound CC(=O)N[C@H]1CCCCNC(=O)[C@@H]2CSSC[C@H](NC(=O)[C@H](CCC(N)=O)NC(=O)[C@H](Cc3c[nH]c4ccccc34)NC1=O)C(=O)N[C@@H](Cc1ccc(OCCN)cc1)C(=O)N[C@@H](Cc1ccc3ccccc3c1)C(=O)NC(C)(C)C(=O)N[C@H](C(=O)N[C@@H](CC(N)=O)C(=O)N[C@@H](CC(N)=O)C(N)=O)CCC(=O)N(C)CCCCC(=O)N2 [compound 12] (Ac-KWQC[AEF][2Nal][Aib]ENN-NH2; linker 1-4-8 via X3) ; its Chemical stability (relative purity loss) Buffer pH 6.5 = 1.1%

# compound CC(=O)N[C@H]1CCCCNC(=O)[C@@H]2CSSC[C@H](NC(=O)[C@H](CCC(N)=O)NC(=O)[C@H](Cc3c[nH]c4ccccc34)NC1=O)C(=O)N[C@@H](Cc1ccc(OCCN)cc1)C(=O)N[C@@H](Cc1ccc3ccccc3c1)C(=O)N[C@@](C)(CC(C)C)C(=O)N[C@H](C(=O)N[C@@H](C)C(=O)N[C@H](CC(C)C)C(N)=O)CCC(=O)N(C)CCCCC(=O)N2 [compound 44] (Ac-KWQC[AEF][2Nal][αMeL]EA[dL]-NH2; linker 1-4-8 via X3) ; its Chemical stability (relative purity loss) Buffer pH 6.5 = 0.1%

# compound CC(=O)N[C@H]1CCCCNC(=O)[C@@H]2CSSC[C@H](NC(=O)[C@H](CCC(N)=O)NC(=O)[C@H](Cc3c[nH]c4ccccc34)NC1=O)C(=O)N[C@@H](Cc1ccc(OCCN)cc1)C(=O)N[C@@H](Cc1ccc3ccccc3c1)C(=O)NC(C)(C)C(=O)N[C@H](C(=O)N[C@@H](C)C(=O)N[C@H](CC(C)C)C(N)=O)CCC(=O)N(C)CCCCC(=O)N2 [compound 19] (Ac-KWQC[AEF][2Nal][Aib]EA[dL]-NH2; linker 1-4-8 via X3) ; its Chemical stability (relative purity loss) Buffer pH 6.5 = 0.0%
